Biological target: SARS-CoV-2 RBD (SARS-CoV-2, UniProt P0DTC2)
Assay: ELISA

>  <binder>
C101 (antibody, V domains shown) VH: QVQLVESGGGLIQPGGSLRLSCAASGFIVSSNYMSWVRQAPGKGLEWVSVIYSGGSTFYTDSVKGRFTISRDNSKNTLYLQMNSLRAEDTAVYYCVRDYGDFYFDYWGQGTLVTVSS VL: EIVLTQSPGTLSLSPGERATLSCRASQSVSSSYLAWYQQKPGQAPRLLIYGASSRATGIPDRFSGGGSETDFTLTISRLEPEDCAVYYCQQYGSSPRTFGQGTKVEIK

>  <unit-of-measure>
ng/mL

>  <EC50>
1.51

$$$$
>  <binder>
C163 (antibody, V domains shown) VH: QVQLQQWGAGLLKPSETLSLTCAVSGGSLSGFYWTWIRQPPGKGLEWIGETNHFGSTDYKPSLKSRVTISVDMSRNQFSLKVTSVTAADTAVYYCARKPLLHSDLSPGAFDIWGQGTMVTVSS VL: EIVLTQSPGTLSLSPGERATLSCRASQTVSANYLAWYQQKAGQAPRLLIYGASKRATGIPDRFSGSGSGTDFTLSISRLEPEDFAVYYCQQYVTTPRTFGGGTKVEI

>  <unit-of-measure>
ng/mL

>  <EC50>
1.77

$$$$
>  <binder>
C148 (antibody, V domains shown) VH: EVQLVESGGGLVQPGGSQRLSCAASGFTVSSNYMSWIRQAPGKGLEWVSVIYSGGSAYYVDSVKGRFTISRDNSKNTLYLQMNSLRPEDTAVYYCARIANYMDVWGKGTTVTVSS VL: EIVMTQSPATLSVSPGERATLSCRASQSVSSHLAWYQQKPGQAPRLLIYGASTRATGIPTRFSGSGSGTEFTLTISSLQSEDFAVYYCQQYNNWPPLTFGGGTKVEIK

>  <unit-of-measure>
ng/mL

>  <EC50>
64.7

$$$$
